The molecules listed here are annotated with their selectivity ratio.
Test: Selectivity index, ratio of CC50 for human HepG2 cells to EC50 for asexual blood-stage chloroquine-sensitive Plasmodium falciparum 3D7 infected in RBC
Write no unit; give the number alone.

Answered cases to consult:
molecule	selectivity ratio
CCc1ccc(C2CC(=O)C3=C(C2)NC(C)=C(C(=O)OCCc2ccccc2)C3c2ccncc2)cc1 (centres undefined)	4
c1ccc(CCN2CCC(NC34CC5CC(CC(C5)C3)C4)CC2)cc1	21

Return the recorded selectivity ratio value; entry: c1ccc2c(CCNC34CC5CC(CC(C5)C3)C4)c[nH]c2c1 4.5

Return the recorded selectivity ratio value; entry: COc1cc2nc(NCCc3nc(=O)c4c(C)c(C)sc4[nH]3)nc(N)c2cc1OC 9.9

Return the recorded selectivity ratio value; entry: COc1cc2nnc(NCC3(N(C)C)CCCCC3)nc2cc1OC 142

Return the recorded selectivity ratio value; entry: COCCCNCCCCOc1ccc2ccccc2c1Br 3.4
